Numbers sourced from patent US11793849B2.

tested on: MDRPA; experiment: MIC determination, microdilution broth method;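 further: broth microdilution per NCCLS recommendations, testing Pithecellobium clypearia water or ethanol extracts against multidrug-resistant Pseudomonas aeruginosa, with MIC50 and MIC90 derived statistically from individual MICs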; settings: Pseudomonas aeruginosa, read-out: MIC (single use), strain P9; EA=P. clypearia water extract
This section presents compounds with their documented MIC values.
Write the answer as a number in µg/mL, unit excluded.

Item under review: C[C@H]1COc2c(N3CCN(C)CC3)c(F)cc3c(=O)c(C(=O)O)cn1c23 . Reported MIC?
4

Item under review: NCC[C@H](O)C(=O)N[C@@H]1C[C@H](N)[C@@H](O[C@H]2O[C@H](CN)[C@@H](O)[C@H](O)[C@H]2O)[C@H](O)[C@H]1O[C@H]1O[C@H](CO)[C@@H](O)[C@H](N)[C@H]1O . Reported MIC?
1

Item under review: C[C@@H](O)[C@H]1C(=O)N2C(C(=O)O)=C(SCCN=CN)C[C@H]12 . Reported MIC?
32

Item under review: CC(C)(O/N=C(\C(=O)N[C@@H]1C(=O)N2C(C(=O)[O-])=C(C[n+]3ccccc3)CS[C@H]12)c1csc(N)n1)C(=O)O . Reported MIC?
8

Item under review: CCN1CCN(C(=O)N[C@@H](C(=O)N[C@@H]2C(=O)N3C(C(=O)O)=C(CSc4nnnn4C)CS[C@H]23)c2ccc(O)cc2)C(=O)C1=O . Reported MIC?
64
